molecular target: T1, His-tagged human HtrA1 protease domain (human, UniProt Q92743 161-367); experiment: BIACORE SPR, Fab analyte, Human HtrA1-PD (N=2)
T1 construct: His-tagged protease domain; also called huHtrA1-PD-His; huHtrA1-PD
T1 sequence (Q92743 other isoform, or with tags, fused parts or gaps limits assumed): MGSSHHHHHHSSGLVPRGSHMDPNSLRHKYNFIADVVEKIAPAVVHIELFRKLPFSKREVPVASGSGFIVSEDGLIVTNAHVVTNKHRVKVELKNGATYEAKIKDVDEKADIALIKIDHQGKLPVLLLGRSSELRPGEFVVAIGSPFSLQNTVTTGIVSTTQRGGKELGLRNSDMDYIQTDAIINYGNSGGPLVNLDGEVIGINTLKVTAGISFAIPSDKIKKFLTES
Readout type: kon (M⁻¹ s⁻¹)
Form entry: value (M⁻¹ s⁻¹) — number only.

Example entries begin here.
Binder	Test value
h15H6.v2.APEG Fab (Fab, name in Kabat numbering, V domains shown, also called h15H6.v3; LC-N94A LC-P95 HC-D55E HC-G56) VH: EVQLVQSGAEVKKPGASVKVSCKASGYTFTDSEMHWVRQAPGQGLEWIGGVDPETEGAAYNQKFKGRATITRDTSTSTAYLELSSLRSEDTAVYYCTRGYDYDYALDYWGQGTLVTVSS VL: DIQMTQSPSSLSASVGDRVTITCRASSSVNFIHWYQQKPGKAPKPLISATSNLASGVPSRFSGSGSGTDFTLTISSLQPEDFATYYCQQWSSAPWTFGQGTKVEIK	350000
h15H6.v2 Fab (Fab, V domains shown, Tested as Fab; also called parent; parental Fab) VH: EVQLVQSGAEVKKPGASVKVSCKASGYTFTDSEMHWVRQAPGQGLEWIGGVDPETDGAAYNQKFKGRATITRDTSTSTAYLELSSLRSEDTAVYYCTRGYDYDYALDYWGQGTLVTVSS VL: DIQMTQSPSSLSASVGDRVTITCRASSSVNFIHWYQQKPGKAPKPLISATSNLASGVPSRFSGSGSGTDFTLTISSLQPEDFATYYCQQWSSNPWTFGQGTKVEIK	490000
SP_EG (Fab, V domains shown, also called h15H6.v2 LC-N94S LC-P95 HC-D55E HC-G56 Fab; copies: 1 + 1) VH: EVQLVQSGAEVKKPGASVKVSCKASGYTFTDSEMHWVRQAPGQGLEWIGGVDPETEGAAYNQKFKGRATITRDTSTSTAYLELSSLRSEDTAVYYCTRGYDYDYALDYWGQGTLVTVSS VL: DIQMTQSPSSLSASVGDRVTITCRASSSVNFIHWYQQKPGKAPKPLISATSNLASGVPSRFSGSGSGTDFTLTISSLQPEDFATYYCQQWSSSPWTFGQGTKVEIK	350000

// switching to the query binder
Short answer for QP_EG (Fab, V domains shown, also called h15H6.v2 LC-N94Q LC-P95 HC-D55E HC-G56 Fab; copies: 1 + 1) VH: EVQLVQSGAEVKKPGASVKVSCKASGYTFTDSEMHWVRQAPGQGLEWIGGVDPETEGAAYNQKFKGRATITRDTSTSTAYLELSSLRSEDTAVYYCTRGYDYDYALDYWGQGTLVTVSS VL: DIQMTQSPSSLSASVGDRVTITCRASSSVNFIHWYQQKPGKAPKPLISATSNLASGVPSRFSGSGSGTDFTLTISSLQPEDFATYYCQQWSSQPWTFGQGTKVEIK : kon was 380000

Cited source: patent US20170145113A1
